Protocol: Half life in C57BL/6 mouse at 4000 mg/kg, po
Condition description: in vivo
Assign half-life to each entry below.
Please state the value followed by its unit.

Each of the following entries comes with a recorded value; kindly state half-life for each.
1. O=C1CCC[C@@H]2[C@H]3CCCN4CCC[C@@H](CN12)[C@@H]34 [MATRINE]
2. Oc1ccc2c(c1)OCC1c3cc4c(cc3OC21)OCO4 (configuration not stated)

Result:
7.5 h
3.5 h

* * *

Protocol: in vivo
Condition description: C57BL/6, mouse, po, 4000 mg/kg
Assign Tmax to each entry below.
Give bare numbers, in min.

> print(dat)
                                   molecule  number
1  O=C1CCC[C@@H]2[C@H]3CCCN4CCC[C@@H](CN12)[C@@H]34 [MATRINE]      42

Each of the following entries comes with a recorded value; kindly state Tmax for each.
1. CC1=C2C(=O)O[C@@H](c3ccoc3)[C@]2(C)CCC1 [FRAXINELLONE]
2. Oc1ccc2c(c1)OCC1c3cc4c(cc3OC21)OCO4 (stereo not drawn)

Result:
1: 30; 2: 42
